assay: Plasma pharmacokinetics of ARRY-520; format: in vivo, human; settings: human, plasma, intravenous, 4.5 mg/m^2, Tmax, Schedule 1, Cycle 1 Day 1, 4.5 mg/m^2 (N=4); median (min-max)
Readout label: Tmax
Please provide the amount together with its unit, number first.

Ask: Which Tmax value is on record for CON(C)C(=O)N1N=C(c2cc(F)ccc2F)S[C@@]1(CCCN)c1ccccc1 ?
Reply: 1.01 h

----------
assay: Plasma pharmacokinetics of ARRY-520; assay type: in vivo, human; conditions: human, plasma, intravenous, Vss, Schedule 1, Cycle 1 Day 1, Schedule Total (N=10); mean (%CV)
Readout label: Vd (L)
Give the quantity in L, number only.

Ask: Which Vd value is on record for CON(C)C(=O)N1N=C(c2cc(F)ccc2F)S[C@@]1(CCCN)c1ccccc1 ?
Reply: 446
